Target: PPARγ (Mus musculus, UniProt P37238)
Assay: Luciferase transcriptional reporter gene assay, pFA-PPARγ-LBD in BHK21 cells
Conditions: Gal4-PPARγ-LBD luciferase reporter, 24 hours incubation
Sequence (P37238 204-505): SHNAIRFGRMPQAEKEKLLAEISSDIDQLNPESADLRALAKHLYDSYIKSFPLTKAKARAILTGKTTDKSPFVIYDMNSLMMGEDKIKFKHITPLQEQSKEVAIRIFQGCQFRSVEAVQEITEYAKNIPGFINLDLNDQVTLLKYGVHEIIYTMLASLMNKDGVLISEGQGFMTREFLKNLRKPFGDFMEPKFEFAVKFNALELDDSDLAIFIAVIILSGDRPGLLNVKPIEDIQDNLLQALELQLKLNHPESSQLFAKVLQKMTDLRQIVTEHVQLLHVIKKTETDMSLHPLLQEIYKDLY
pEC50: −log10 of the molar value.
PROPERTY MEASURED: pEC50

COc1cccc(CN(c2ccccc2)c2ccc(OCCc3nc(-c4ccccc4)oc3C)cc2)c1C(=O)O; 5.85
Cc1oc(-c2ccccc2)nc1CCOc1ccc(N(Cc2c(F)cccc2C(=O)O)c2ccccc2)cc1; 5.70
Cc1oc(-c2ccccc2)nc1CCOc1ccc(N(Cc2ccccc2C(=O)O)c2ccc(F)cc2)cc1; 5.63
CCCN(Cc1ccccc1C(=O)O)c1ccc(OCCc2nc(-c3ccccc3)oc2C)cc1; 5.88

====

Target: PPARα (Homo sapiens, UniProt Q07869)
Sequence (Q07869 167-468 limits assumed): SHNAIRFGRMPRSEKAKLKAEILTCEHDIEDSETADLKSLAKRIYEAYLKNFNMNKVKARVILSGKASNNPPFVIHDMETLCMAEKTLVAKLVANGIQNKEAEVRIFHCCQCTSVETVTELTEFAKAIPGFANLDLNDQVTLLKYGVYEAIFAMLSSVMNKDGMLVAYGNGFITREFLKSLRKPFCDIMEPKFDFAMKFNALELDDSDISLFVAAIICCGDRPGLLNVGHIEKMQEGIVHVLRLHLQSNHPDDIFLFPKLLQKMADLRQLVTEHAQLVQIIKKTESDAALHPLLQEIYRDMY
Test: Luciferase transcriptional reporter gene assay, pFA-PPARα-LBD in BHK21 cells
Conditions: Gal4-PPARα-LBD luciferase reporter, 24 hours incubation
PROPERTY MEASURED: EC50 (nM)

Cc1oc(-c2ccccc2)nc1CCOc1ccc(N(Cc2ccccc2C(=O)O)c2ccc(F)cc2)cc1; 2590
Cc1oc(-c2ccccc2)nc1CCOc1ccc(N(Cc2c(F)cccc2C(=O)O)c2ccccc2)cc1; 10000
CCCN(Cc1ccccc1C(=O)O)c1ccc(OCCc2nc(-c3ccccc3)oc2C)cc1; 2700
COc1cccc(CN(c2ccccc2)c2ccc(OCCc3nc(-c4ccccc4)oc3C)cc2)c1C(=O)O; 2050

====

Molecular target: PPARγ (Mus musculus, UniProt P37238)
PROPERTY MEASURED: IC50 (µM)

COc1cccc(CN(c2ccccc2)c2ccc(OCCc3nc(-c4ccccc4)oc3C)cc2)c1C(=O)O; 0.98

Cited source: patent US6747049B2
